Consider the following molecules and their measured LTR-III ΔTm readings.
Tested on: HIV-1 LTR-III G-quadruplex (FAM/TAMRA-labeled LTR-III)
Assay: FRET melting assay, LTR-III G4
Type: binding
Details: Table S1 primary screening, ligand:ODN 50:1, singlicate
The reply must contain the numeric value and, after it, the unit.

Field: example entries. Status: answers known.
> print(dat)
                                   molecule                              assay.target  observed
1  COc1cc(O)ccc1C=C1N=C(C=Cc2ccc(N(C)C)cc2)N(C)C1=O [MID 147]  HIV-1 LTR-III G-quadruplex (FAM/TAMRA-labeled LTR-III)    0.4 °C
2  COc1ccc(C=CC2=NC(=Cc3ccncc3)C(=O)N2C)cc1 [N 813]  HIV-1 LTR-III G-quadruplex (FAM/TAMRA-labeled LTR-III)    0.6 °C
3   CCC1=NC(=Cc2ccc(O)cc2)C(=O)N1OC [M 316]  HIV-1 LTR-III G-quadruplex (FAM/TAMRA-labeled LTR-III)   -0.3 °C
4  CC1=NC(=Cc2ccc(N(C)C)cc2)C(=O)N1CCNC(=O)OC(C)(C)C [M 2022a]  HIV-1 LTR-III G-quadruplex (FAM/TAMRA-labeled LTR-III)   -0.2 °C
5  COc1ccc(-c2c(C(=O)OC(C)C)noc2C(=O)N2CCCC2)cc1 [SA 309]  HIV-1 LTR-III G-quadruplex (FAM/TAMRA-labeled LTR-III)   -0.5 °C

Entry under test: CC(C)OC(=O)c1noc(C(=O)NCc2ccccc2)c1-c1ccccc1F [SA 331E] . Its LTR-III ΔTm was -0.9 °C

CC(=O)C1=N/C(=C\c2c[nH]c3ccccc23)C(=O)N1C [M 1975] has a reported LTR-III ΔTm of -0.6 °C

Lab note: measured LTR-III ΔTm of CCN(CC)c1ccc(C=C2N=C(C)N(CCCC(=O)O)C2=O)cc1 [GC 03] was 0.4 °C

// LTR-III ΔTm lookup, molecule = O=C1NC(=S)SC1=Cc1ccc(O)cc1 [HBR] , result: -0.2 °C

For this molecule ( COc1ccc(C(=O)Oc2ccccc2)cc1 [M 939] ), measured LTR-III ΔTm is -1.1 °C
